Please go through the items and note down their protein stability index.
B1: MLH1 (parent)
chain: YAHQMVRTDSREQKLDAFLQPLSK

# Variants of: B1
# Assay method text: protein stability index of a GFP-peptide fusion (GPS, HEK-293T) (PSI 1-6); higher = more stable;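 also: lentivirally expressed fusions sorted by FACS into six bins by GFP to DsRed ratio, PSI derived from sequencing read proportions per bin multiplied by bin number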
# Condition description: c terminus: a fixed tail appended
Write the value as a bare number.

**Query** Would you mind telling me what protein stability index value was observed for `S23W` ?
**Result** 2.27

**Query** Would you mind telling me what protein stability index value was observed for `Y1H` ?
**Result** 3.6

**Query** Would you mind telling me what protein stability index value was observed for `Q13F` ?
**Result** 1.72

**Query** Would you mind telling me what protein stability index value was observed for `T8W` ?
**Result** 1.83

**Query** Would you mind telling me what protein stability index value was observed for `H3Y` ?
**Result** 2

**Query** Would you mind telling me what protein stability index value was observed for `T8L` ?
**Result** 2.43

**Query** Would you mind telling me what protein stability index value was observed for `K24I` ?
**Result** 1.95

**Query** Would you mind telling me what protein stability index value was observed for `V6M` ?
**Result** 2.29

**Query** Would you mind telling me what protein stability index value was observed for `P21I` ?
**Result** 2.57

**Query** Would you mind telling me what protein stability index value was observed for `V6I` ?
**Result** 2.43

**Query** Would you mind telling me what protein stability index value was observed for `A17S` ?
**Result** 2.57

**Query** Would you mind telling me what protein stability index value was observed for `Q20D` ?
**Result** 3.39

**Query** Would you mind telling me what protein stability index value was observed for `H3K` ?
**Result** 2.75

**Query** Would you mind telling me what protein stability index value was observed for `D16W` ?
**Result** 3.5

**Query** Would you mind telling me what protein stability index value was observed for `S10W` ?
**Result** 1.66

**Query** Would you mind telling me what protein stability index value was observed for `L22N` ?
**Result** 3.11

**Query** Would you mind telling me what protein stability index value was observed for `R7K` ?
**Result** 2.74

**Query** Would you mind telling me what protein stability index value was observed for `Q4G` ?
**Result** 2

**Query** Would you mind telling me what protein stability index value was observed for `F18R` ?
**Result** 3.17

**Query** Would you mind telling me what protein stability index value was observed for `K14A` ?
**Result** 2.84

**Query** Would you mind telling me what protein stability index value was observed for `H3I` ?
**Result** 2.5

**Query** Would you mind telling me what protein stability index value was observed for `R7P` ?
**Result** 3.06

**Query** Would you mind telling me what protein stability index value was observed for `S23R` ?
**Result** 2.45

**Query** Would you mind telling me what protein stability index value was observed for `S10G` ?
**Result** 2.71

**Query** Would you mind telling me what protein stability index value was observed for `R7V` ?
**Result** 2.12

**Query** Would you mind telling me what protein stability index value was observed for `R11W` ?
**Result** 1.33

**Query** Would you mind telling me what protein stability index value was observed for `F18D` ?
**Result** 3.79

**Query** Would you mind telling me what protein stability index value was observed for `R11L` ?
**Result** 1.95

**Query** Would you mind telling me what protein stability index value was observed for `Q20W` ?
**Result** 2.99

**Query** Would you mind telling me what protein stability index value was observed for `R7W` ?
**Result** 2.32

**Query** Would you mind telling me what protein stability index value was observed for `R7G` ?
**Result** 1.96

**Query** Would you mind telling me what protein stability index value was observed for `L22F` ?
**Result** 2.07

**Query** Would you mind telling me what protein stability index value was observed for `T8I` ?
**Result** 2.49

**Query** Would you mind telling me what protein stability index value was observed for `Q4W` ?
**Result** 2.7

**Query** Would you mind telling me what protein stability index value was observed for `S23H` ?
**Result** 2.01

**Query** Would you mind telling me what protein stability index value was observed for `Y1D` ?
**Result** 4.12

**Query** Would you mind telling me what protein stability index value was observed for `S23G` ?
**Result** 3.24

**Query** Would you mind telling me what protein stability index value was observed for `V6L` ?
**Result** 2.48

**Query** Would you mind telling me what protein stability index value was observed for `R11T` ?
**Result** 3.34

**Query** Would you mind telling me what protein stability index value was observed for `L22I` ?
**Result** 3.13

**Query** Would you mind telling me what protein stability index value was observed for `Q4S` ?
**Result** 2.42

**Query** Would you mind telling me what protein stability index value was observed for `Q20E` ?
**Result** 2.51

**Query** Would you mind telling me what protein stability index value was observed for `L15D` ?
**Result** 3.25

**Query** Would you mind telling me what protein stability index value was observed for `L19R` ?
**Result** 3.33

**Query** Would you mind telling me what protein stability index value was observed for `Q20V` ?
**Result** 2.09

**Query** Would you mind telling me what protein stability index value was observed for `S23P` ?
**Result** 2.18

**Query** Would you mind telling me what protein stability index value was observed for `D16G` ?
**Result** 2.08

**Query** Would you mind telling me what protein stability index value was observed for `L22D` ?
**Result** 3.38

**Query** Would you mind telling me what protein stability index value was observed for `L15F` ?
**Result** 2.2

**Query** Would you mind telling me what protein stability index value was observed for `S10N` ?
**Result** 2.43

**Query** Would you mind telling me what protein stability index value was observed for `Q13C` ?
**Result** 1.54

**Query** Would you mind telling me what protein stability index value was observed for `E12G` ?
**Result** 2.2

**Query** Would you mind telling me what protein stability index value was observed for `L15N` ?
**Result** 3.28

**Query** Would you mind telling me what protein stability index value was observed for `A17E` ?
**Result** 2.98

**Query** Would you mind telling me what protein stability index value was observed for `Q13T` ?
**Result** 2.7

**Query** Would you mind telling me what protein stability index value was observed for `D16A` ?
**Result** 2.69

**Query** Would you mind telling me what protein stability index value was observed for `Y1S` ?
**Result** 3.88

**Query** Would you mind telling me what protein stability index value was observed for `F18L` ?
**Result** 2.4

**Query** Would you mind telling me what protein stability index value was observed for `D16L` ?
**Result** 1.62

**Query** Would you mind telling me what protein stability index value was observed for `Q4T` ?
**Result** 2.16

**Query** Would you mind telling me what protein stability index value was observed for `Q13H` ?
**Result** 2.04

**Query** Would you mind telling me what protein stability index value was observed for `H3G` ?
**Result** 2.15

**Query** Would you mind telling me what protein stability index value was observed for `T8H` ?
**Result** 2.04

**Query** Would you mind telling me what protein stability index value was observed for `Q20M` ?
**Result** 2.45

**Query** Would you mind telling me what protein stability index value was observed for `A17C` ?
**Result** 2.15

**Query** Would you mind telling me what protein stability index value was observed for `Q20Y` ?
**Result** 1.88

**Query** Would you mind telling me what protein stability index value was observed for `P21L` ?
**Result** 2.16

**Query** Would you mind telling me what protein stability index value was observed for `A17D` ?
**Result** 3

**Query** Would you mind telling me what protein stability index value was observed for `M5N` ?
**Result** 3.16

**Query** Would you mind telling me what protein stability index value was observed for `F18G` ?
**Result** 2.79

**Query** Would you mind telling me what protein stability index value was observed for `E12A` ?
**Result** 2.37

**Query** Would you mind telling me what protein stability index value was observed for `L22P` ?
**Result** 2.06

**Query** Would you mind telling me what protein stability index value was observed for `Q20I` ?
**Result** 2.07

**Query** Would you mind telling me what protein stability index value was observed for `Q4C` ?
**Result** 2.07

**Query** Would you mind telling me what protein stability index value was observed for `D9R` ?
**Result** 2.54

**Query** Would you mind telling me what protein stability index value was observed for `V6Q` ?
**Result** 2.71

**Query** Would you mind telling me what protein stability index value was observed for `Q4F` ?
**Result** 2

**Query** Would you mind telling me what protein stability index value was observed for `D9L` ?
**Result** 2.15

These data points were gathered from the supplement of paper PMC10567573.
